B1: tRNA (parent)
chain: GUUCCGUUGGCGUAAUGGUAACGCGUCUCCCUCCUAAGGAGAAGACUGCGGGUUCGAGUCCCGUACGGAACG

Variants of: B1
protocol.notes: yeast fitness, log relative to wild type (ln ratio); higher = fitter; tRNA-Arg(CCU), competitive growth, 37 C, 1 M NaCl
parameter.measured: yeast fitness (ln)
// return a plain number; no unit text

As a guide, the following entries are already answered.
G1A G6A C27U A43C C46U C66U A70U = -0.318
G1A G6U A43C A70U = -0.247
G1A C46U C66U C71U = -0.0203
U2C C46U C66A A70U = 0.075
C27U C66U A69G A70U C71U = -0.369
G1A U2G A43C A69G A70U = -0.159
G1A U2C G6A C46U A69G A70U = -0.0526
G6U C27U A43C C46U C66A C71U = -0.299

In: Identify measured yeast fitness (ln) corresponding to U2G G6U C71U
Out: -0.173

In: Identify measured yeast fitness (ln) corresponding to U2G C66U
Out: -0.0538

In: Identify measured yeast fitness (ln) corresponding to G1A U2C C27U C46U A70G C71U
Out: -0.0196

In: Identify measured yeast fitness (ln) corresponding to G1A U2G A43C C46U C66A A69G A70U C71U
Out: -0.233

In: Identify measured yeast fitness (ln) corresponding to G1A G6A C27U C46U C66U A69G A70G
Out: -0.338

In: Identify measured yeast fitness (ln) corresponding to U2C G6A C27U A43C
Out: -0.0322

In: Identify measured yeast fitness (ln) corresponding to G1A U2G G6A C46U C66U A69G C71U
Out: -0.253
